Record form. Attribute: pIC50. Fill in for each entry.
target: RUP3 (Homo sapiens); construct: seen in the listing only (N); seen in the listing only (C); expressed in transfected cells; assay: 96-Well Cyclic AMP Membrane Assay for RUP3 (Membrane Cyclase Assay); type: biochemical; conditions: RUP3 membranes, cAMP Flashplate
Sequence (Q8TDV5 with tags, fused parts or gaps): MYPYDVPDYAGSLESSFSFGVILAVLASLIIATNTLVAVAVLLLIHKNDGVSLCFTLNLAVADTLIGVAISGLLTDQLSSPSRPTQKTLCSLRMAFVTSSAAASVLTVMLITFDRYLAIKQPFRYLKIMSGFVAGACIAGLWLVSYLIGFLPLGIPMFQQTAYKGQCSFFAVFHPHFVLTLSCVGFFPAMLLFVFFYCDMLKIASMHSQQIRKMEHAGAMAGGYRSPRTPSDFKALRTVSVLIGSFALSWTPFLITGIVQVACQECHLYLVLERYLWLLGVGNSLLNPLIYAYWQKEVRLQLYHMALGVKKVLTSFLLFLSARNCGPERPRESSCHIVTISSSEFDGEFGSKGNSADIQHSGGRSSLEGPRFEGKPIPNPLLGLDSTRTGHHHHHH
One number for each entry, as −log10 of the molar value.

• O=[N+]([O-])c1c(Nc2ccc(-n3cncn3)cc2)ncnc1N1CCC(Sc2ccccn2)CC1 [Compound B70] = 6.89
• CCCC1CCN(c2ncnc(Oc3ccc(C(=O)c4ccc(F)cc4)cc3)c2[N+](=O)[O-])CC1 [Compound A124] = 6.62

The reported pIC50 of the compound CS(=O)(=O)c1ccc(Nc2ncnc(N3CCC(Sc4ccccc4)CC3)c2[N+](=O)[O-])cc1 [Compound B84] was 7.30
